test_name: Metabolic stability in mouse liver microsomes assessed as parent compound remaining; further: time not given here
Assay type: ADME, Microsome
endpoint: Stability (%)

Completed entries (count: 7):
{"compound_smiles": "Cc1ccncc1-c1ccnc2c(-c3ccccc3)csc12", "Stability / %": 2}
{"compound_smiles": "Nc1ncncc1-c1ccnc2c1cnn2-c1cccc(S(N)(=O)=O)c1", "Stability / %": 95}
{"compound_smiles": "Nc1ncncc1-c1ccnc2c1cnn2-c1ccccn1", "Stability / %": 70}
{"compound_smiles": "Cn1cncc1-c1ccnc2c1cnn2-c1ccc(F)cc1", "Stability / %": 37}
{"compound_smiles": "COc1c(F)cccc1-n1ncc2c(-c3cnccc3C)ccnc21", "Stability / %": 2}
{"compound_smiles": "Cc1ccncc1-c1ccnc2c1cnn2CC(F)(F)F", "Stability / %": 41}
{"compound_smiles": "Cc1ccncc1-c1ccnc2c1cnn2-c1ccc(F)c(Cl)c1", "Stability / %": 2}

(1) Cc1ccncc1-c1cccc2c1OCCN2c1ccccc1
(2) Cc1ccncc1-c1ccnc2c1cnn2-c1nccs1
(3) Nc1ccncc1-c1ccnc2c1cnn2-c1ccc(F)cc1
(4) Cc1ccncc1-c1ccnc2c(-c3ccccc3)noc12
(5) Nc1ncncc1-c1ccnc2c1cnn2-c1ccc(F)cc1
Give the ascending ranking of the items by reported Stability. A ranking is expressed here by listing the labels in the requested order.
1, 3, 4, 2, 5

###

target_system: Steroid 17-alpha-hydroxylase/17,20 lyase (Macaca fascicularis)
Sequence (Q2XVA1 whole entry): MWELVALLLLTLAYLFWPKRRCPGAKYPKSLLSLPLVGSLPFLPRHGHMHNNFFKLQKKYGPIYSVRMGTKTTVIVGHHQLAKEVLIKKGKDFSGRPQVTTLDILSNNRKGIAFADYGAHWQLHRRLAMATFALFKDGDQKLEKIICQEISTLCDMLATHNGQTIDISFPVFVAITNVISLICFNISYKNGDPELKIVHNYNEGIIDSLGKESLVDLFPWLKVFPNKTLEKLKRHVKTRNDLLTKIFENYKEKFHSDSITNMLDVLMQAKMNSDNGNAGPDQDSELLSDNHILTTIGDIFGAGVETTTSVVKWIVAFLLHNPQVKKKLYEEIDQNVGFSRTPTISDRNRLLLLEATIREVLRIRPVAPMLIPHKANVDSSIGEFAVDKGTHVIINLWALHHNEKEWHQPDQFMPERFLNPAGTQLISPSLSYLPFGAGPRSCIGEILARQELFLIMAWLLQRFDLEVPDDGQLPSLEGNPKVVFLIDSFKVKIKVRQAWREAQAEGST
test_name: Inhibition of cynomolgus monkey CYP17A1
Assay type: ADME
endpoint: IC50 (nM)
Give the value in nM but do not write nM after it.

Lab note: Nc1ncncc1-c1ccnc2c1cnn2-c1ccc(F)cc1 gave IC50 of 2

###

test_name: Tmax in cynomolgus monkey at 1 mg/kg, po
Assay type: ADME, organism-based, Macaca fascicularis
protocol_conditions: in vivo
endpoint: Tmax (h)
Reply with just the number (in h).

The compound listed as Nc1ncncc1-c1ccnc2c1cnn2-c1ccc(F)cc1 has a reported Tmax of 1

###

target_system: Steroid 17-alpha-hydroxylase/17,20 lyase (Homo sapiens, UniProt P05093)
Sequence (P05093 whole entry): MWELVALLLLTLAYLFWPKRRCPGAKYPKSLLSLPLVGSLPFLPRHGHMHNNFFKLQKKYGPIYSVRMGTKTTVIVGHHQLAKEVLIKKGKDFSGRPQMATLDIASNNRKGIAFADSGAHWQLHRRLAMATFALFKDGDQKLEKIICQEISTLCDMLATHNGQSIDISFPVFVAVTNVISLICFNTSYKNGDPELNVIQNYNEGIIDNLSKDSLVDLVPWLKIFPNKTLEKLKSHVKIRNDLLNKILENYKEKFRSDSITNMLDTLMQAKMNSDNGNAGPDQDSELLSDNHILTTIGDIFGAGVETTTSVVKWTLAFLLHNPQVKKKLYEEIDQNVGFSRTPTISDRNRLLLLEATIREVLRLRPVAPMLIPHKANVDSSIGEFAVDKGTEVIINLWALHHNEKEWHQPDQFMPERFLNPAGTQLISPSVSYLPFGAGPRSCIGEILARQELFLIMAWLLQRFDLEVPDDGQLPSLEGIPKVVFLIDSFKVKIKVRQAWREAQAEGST
test_name: Inhibition of human CYP17A1
Type: ADME
pIC50: −log10 of the molar value.
endpoint: pIC50

{"compound_smiles": "Nc1ncncc1-c1ccnc2c1cnn2-c1cccc(S(N)(=O)=O)c1", "endpoint": "pIC50", "assay_result": 7.00}
{"compound_smiles": "COc1c(F)cccc1-n1ncc2c(-c3cnccc3C)ccnc21", "endpoint": "pIC50", "assay_result": 7.85}
{"compound_smiles": "Cc1ccncc1-c1ccnc2c1cnn2-c1ccc(F)c(Cl)c1", "endpoint": "pIC50", "assay_result": 7.62}
{"compound_smiles": "Nc1ncncc1-c1ccnc2c1cnn2-c1ccc(F)cc1F", "endpoint": "pIC50", "assay_result": 7.96}
{"compound_smiles": "Cc1ccncc1-c1ccnc2c1cnn2-c1ncccc1Cl", "endpoint": "pIC50", "assay_result": 8.30}

(I) Cc1ccncc1-c1cccc2c(-c3ccccc3)noc12
(II) Cc1ccncc1-c1cccc2c(-c3ccccc3)csc12
Field: lower recorded pIC50 (choose I or II ) Reply with the label of the item you choose.
II

(I) COc1ccncc1-c1ccnc2c1cnn2-c1ccc(F)cc1
(II) Nc1ncncc1-c1ccnc2c1cnn2-c1c(F)cc(F)cc1F
(III) Fc1ccc(-n2ncc3c(-c4cncnc4C(F)(F)F)ccnc32)cc1
(IV) Fc1ccc(-n2ncc3c(-c4cncnc4C4CC4)ccnc32)cc1
(V) Cc1ccncc1-c1cccc2c(-c3ccccc3)cnn12
Order the records so the highest pIC50 appears first and the lowest last. Provide the labels, sequenced as the question asks.
V, II, I, IV, III
(V: 8.70, II: 8.30, I: 7.96, IV: 7.64, III: 6.85)

###

target_system: Steroid 17-alpha-hydroxylase/17,20 lyase (Homo sapiens, UniProt P05093)
test_name: Selectivity ratio for inhibition of human CYP17A1 hydroxylase activity to inhibition of human CYP17A1 lyase activity
Assay type: ADME
endpoint: Ratio
API doc: respond with a numeric literal and nothing else, no unit.

Examples from the recorded data:
{"compound_smiles": "Cc1ccncc1-c1ccnc2c1cnn2-c1ccc(F)cc1Cl", "Ratio": 3}
{"compound_smiles": "Nc1ccncc1-c1ccnc2c1cnn2-c1ccc(F)cc1", "Ratio": 7}

Per the record, Fc1ccc(-n2ncc3c(-c4cncnc4NCC(F)(F)F)ccnc32)cc1 has Ratio of 3

Per the record, Cc1ccncc1-c1ccnc2c1cnn2-c1ncccc1Cl has Ratio of 7

Recorded result, Nc1ncncc1-c1ccnc2c1cnn2-c1ccc(F)cc1C(F)(F)F , Ratio: 3

###

test_name: Metabolic stability in rat liver microsomes assessed as parent compound remaining; further: time not given here
Assay type: ADME, Microsome
endpoint: Stability (%)

{"compound_smiles": "Fc1ccc(-n2ncc3c(-c4cncnc4N4CC(F)(F)C4)ccnc32)cc1", "value_unit": "%", "assay_result": 35}
{"compound_smiles": "Cc1ccncc1-c1ccnc2c1cnn2-c1ccc(F)cc1Cl", "value_unit": "%", "assay_result": 0.9}
{"compound_smiles": "COc1c(F)cccc1-n1ncc2c(-c3cnccc3C)ccnc21", "value_unit": "%", "assay_result": 0.2}
{"compound_smiles": "Cc1ccncc1-c1cccc2c1OCCN2c1ccccc1", "value_unit": "%", "assay_result": 0.8}
{"compound_smiles": "Cc1ccncc1-c1ccnn2c(-c3ccccc3)ccc12", "value_unit": "%", "assay_result": 3}

(a) Cc1ccncc1-c1ccnc2c1cnn2-c1ncccc1Cl
(b) Fc1ccc(-n2ncc3c(-c4cncn5cccc45)ccnc32)cc1
Problem: Given the entries a and b , determine which has the lower reported Stability. Use the label to indicate which entry you chose.
b
(b: 12%, a: 26%)

(P) Cc1ccncc1-c1ccnc2c(-c3ccccc3)noc12
(Q) Cc1ccncc1-c1ccnn2c(-c3ccccc3)cnc12
I would appreciate it if you could say which entry, P or Q , has the lower Stability value. // return label of chosen record
P

(1) Cc1ccncc1-c1ccnc2c1cnn2-c1cccc(F)c1
(2) Cc1ccncc1-c1cccc2c(-c3ccccc3)noc12
Which numeric Stability is bigger, that of 1 or that of 2 ? Write the label of whichever entry you select.
1

(P) Nc1ncncc1-c1ccnc2c1cnn2-c1ccccn1
(Q) Cc1ccncc1-c1ccnc2c1cnn2-c1nccs1
(R) Cc1ccncc1-c1ccnc2c1cnn2C(C)(C)C
Would you mind ranking these molecules by ascending Stability? Your reply should list the labels following the order given in the request.
R, Q, P
(R: 16%, Q: 48%, P: 100%)

###

test_name: Permeability across basolateral to apical side in human Caco-2 cells
Assay type: ADME, cell-based
protocol_conditions: read-out: permeability
endpoint: Papp B→A (×10⁻⁶ cm/s)
The response must be a number in ×10⁻⁶ cm/s with no trailing unit.

Memo: Nc1ncncc1-c1ccnc2c1cnn2-c1ccc(F)cc1 , reported Papp B→A: 21.2

###

target_system: Cytochrome P450 1A2 (Homo sapiens)
Sequence (P05177 whole entry): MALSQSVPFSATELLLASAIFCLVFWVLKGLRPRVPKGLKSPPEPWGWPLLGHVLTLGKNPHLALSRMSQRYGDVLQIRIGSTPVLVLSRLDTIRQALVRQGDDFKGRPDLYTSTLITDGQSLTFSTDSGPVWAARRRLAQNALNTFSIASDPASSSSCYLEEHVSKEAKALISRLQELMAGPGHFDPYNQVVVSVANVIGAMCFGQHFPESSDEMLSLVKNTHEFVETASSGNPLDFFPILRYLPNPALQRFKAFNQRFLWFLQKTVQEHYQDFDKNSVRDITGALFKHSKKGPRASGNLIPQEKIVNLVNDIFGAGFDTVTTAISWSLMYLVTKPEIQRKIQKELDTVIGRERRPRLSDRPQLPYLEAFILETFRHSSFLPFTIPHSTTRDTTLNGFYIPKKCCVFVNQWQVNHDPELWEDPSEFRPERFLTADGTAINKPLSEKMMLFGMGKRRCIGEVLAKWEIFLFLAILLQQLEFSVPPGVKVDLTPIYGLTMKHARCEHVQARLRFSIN
test_name: Inhibition of CYP1A2 (unknown origin)
Assay type: ADME
endpoint: IC50 (nM)

Consider the worked cases shown below.
{"compound_smiles": "Fc1ccc(-n2ncc3c(-c4cncnc4NCC(F)(F)F)ccnc32)cc1", "IC50 (nM)": 4710}
{"compound_smiles": "COc1ccccc1-n1ncc2c(-c3cnccc3C)ccnc21", "IC50 (nM)": 15400}
{"compound_smiles": "Cc1ccncc1-c1ccnc2c1cnn2-c1cccc(F)c1", "IC50 (nM)": 281}

(1) COc1ccncc1-c1ccnc2c1cnn2-c1ccc(F)cc1
(2) COc1cccc(-n2ncc3c(-c4cnccc4C)ccnc32)c1
(3) Fc1ccc(-n2ncc3c(-c4cncnc4C(F)(F)F)ccnc32)cc1
(4) Cc1ccncc1-c1ccnn2c(-c3ccccc3)ccc12
(5) Cc1ccncc1-c1ccnc2c1cnn2-c1ccc(F)cc1F
Number of compounds to sort: 5. Sort criterion: IC50, ascending. List the labels according to the requested ordering.
4, 1, 2, 3, 5

(a) Cc1ccncc1-c1ccnc2c1cnn2C(C)(C)C
(b) Cc1ccncc1-c1cccc2c(-c3ccccc3)csc12
(c) Cc1ccncc1-c1ccnc2c1cnn2-c1ccccc1
Please list these in order of increasing IC50. Thank you! List the labels, following the order given in the request.
b, c, a

(a) Cc1ccncc1-c1ccnc2c(-c3ccccc3)csc12
(b) Fc1ccc(-n2ncc3c(-c4cncnc4C4CC4)ccnc32)cc1
(c) Cc1ccncc1-c1cccc2c(-c3ccccc3)cnn12
(d) Cc1ncncc1-c1ccnc2c1cnn2-c1ccc(F)cc1
(e) Fc1ccc(-n2ncc3c(-c4cncnc4NC4CC4)ccnc32)cc1
Given 5 compounds, produce a descending ranking by IC50. Answer with the labels in sequence, matching the requested order.
e, d, b, a, c
(e: 10900 nM, d: 2740 nM, b: 658 nM, a: 250 nM, c: 34 nM)

###

test_name: AUC in cynomolgus monkey at 1 mg/kg, po
Type: ADME, organism-based, Macaca fascicularis
Design: dose 1 mg/kg, route po
protocol_conditions: in vivo
endpoint: AUC (µM·h)
A number alone suffices; assume µM·h.

Looking up Nc1ncncc1-c1ccnc2c1cnn2-c1ccc(F)cc1 , I see its AUC listed as 26

###

test_name: Metabolic stability in human liver microsomes assessed as parent compound remaining relative to control; further: time not given here
Format: ADME, Microsome
endpoint: Stability (%)

{"compound_smiles": "Fc1ccc(-n2ncc3c(-c4cncnc4C(F)(F)F)ccnc32)cc1", "value_unit": "%", "Stability": 88}
{"compound_smiles": "Cc1ccncc1-c1ccnc2c1cnn2-c1ccccc1", "value_unit": "%", "Stability": 73}
{"compound_smiles": "Cc1ccncc1-c1ccnc2c1cnn2CC(F)(F)F", "value_unit": "%", "Stability": 92}
{"compound_smiles": "Fc1ccc(-n2ncc3c(-c4cncnc4C4CC4)ccnc32)cc1", "value_unit": "%", "Stability": 85}
{"compound_smiles": "Cc1ccncc1-c1ccnn2c(-c3ccccc3)ccc12", "value_unit": "%", "Stability": 70}
{"compound_smiles": "Cc1ccncc1-c1cccc2c(-c3ccccc3)noc12", "value_unit": "%", "Stability": 80}
